test system: Hepatotoxicity; experiment: FDA HLAED, serum glutamic pyruvic transaminase (SGPT) increase; conditions: human
Provide the reported SGPT Increase - Index Value of each item.

Form: item CC(=O)[C@]1(O)Cc2c(O)c3c(c(O)c2[C@@H](O[C@H]2C[C@H](N)[C@H](O)[C@H](C)O2)C1)C(=O)c1ccccc1C3=O [IDARUBICIN] ; test system Hepatotoxicity; SGPT Increase - Index Value: 0

Form: item COc1cc(N)c(Cl)cc1C(=O)NC1CCN(CCCOc2ccc(F)cc2)CC1OC (stereo not drawn) [CISAPRIDE] ; test system Hepatotoxicity; SGPT Increase - Index Value: 0.4

Form: item Nc1cc(Cl)c(N=C2NCCN2)c(Cl)c1 [APRACLONIDINE] ; test system Hepatotoxicity; SGPT Increase - Index Value: 0

Form: item CNCCC(Oc1ccc(C(F)(F)F)cc1)c1ccccc1 (stereo not drawn) [FLUOXETINE] ; test system Hepatotoxicity; SGPT Increase - Index Value: 8.7

Form: item COc1ccc(C(=O)Nc2ccccc2CCC2CCCCN2C)cc1 (stereo not drawn) [ENCAINIDE] ; test system Hepatotoxicity; SGPT Increase - Index Value: 7.7

Form: item CCCCCCC(=O)O[C@H]1CC[C@H]2[C@@H]3CCC4=CC(=O)CC[C@]4(C)[C@H]3CC[C@]12C [TESTOSTERONE ENANTHATE] ; test system Hepatotoxicity; SGPT Increase - Index Value: 7.2

Form: item C[C@@H]1C[C@H]2[C@H]3[C@H]([C@@H](O)C[C@]2(C)[C@@]1(O)C(=O)CO)[C@@]1(C)C=CC(=O)C=C1C[C@H]3Cl [ALCLOMETASONE] ; test system Hepatotoxicity; SGPT Increase - Index Value: 0

Form: item NC1=NC(=O)C(c2ccccc2)O1 (stereo not drawn) [PEMOLINE] ; test system Hepatotoxicity; SGPT Increase - Index Value: 23.5

---

tested on: Hepatotoxicity; assay: FDA HLAED, serum glutamic pyruvic transaminase (SGPT) increase; conditions: human
reported metric: SGPT Increase - Index Value
The answer should be written as a number, with no unit following it.

get_value(item= CC(Cc1ccc(O)c(O)c1)C(C)Cc1ccc(O)c(O)c1 (stereo not drawn) [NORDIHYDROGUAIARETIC ACID] , readout=SGPT Increase - Index Value) returns 0

get_value(item= Nc1ccc(O)c(C(=O)O)c1 [MESALAMINE] , readout=SGPT Increase - Index Value) returns 1.8

get_value(item= C[C@H](O)C(=O)Nc1c(I)c(C(=O)NC(CO)CO)c(I)c(C(=O)NC(CO)CO)c1I [IOPAMIDOL] , readout=SGPT Increase - Index Value) returns 0

get_value(item= CO/N=C(\C(=O)N[C@@H]1C(=O)N2C(C(=O)[O-])=C(C[N+]3(C)CCCC3)CS[C@H]12)c1csc(N)n1 , readout=SGPT Increase - Index Value) returns 68.4

get_value(item= COc1cc([C@@H]2c3cc4c(cc3[C@@H](O[C@@H]3O[C@@H]5CO[C@@H](C)O[C@H]5[C@H](O)[C@H]3O)[C@H]3COC(=O)[C@H]23)OCO4)cc(OC)c1O [ETOPOSIDE] , readout=SGPT Increase - Index Value) returns 0

get_value(item= CC[C@@H]1C(=O)OC[C@@H]1Cc1cncn1C [PILOCARPINE] , readout=SGPT Increase - Index Value) returns 4.6

get_value(item= CC(C)(C)NC[C@H](O)COc1ccccc1C1CCCC1 [PENBUTOLOL] , readout=SGPT Increase - Index Value) returns 0

get_value(item= O=c1[nH]c(=O)n([C@H]2C[C@H](O)[C@@H](CO)O2)cc1C(F)(F)F [TRIFLURIDINE] , readout=SGPT Increase - Index Value) returns 0

---

tested on: Hepatotoxicity; assay: FDA HLAED, serum glutamic pyruvic transaminase (SGPT) increase; conditions: human
reported metric: SGPT Increase - Number of Reports

CC(NC(C)(C)C)C(=O)c1cccc(Cl)c1 (centres undefined)	< 4
CCn1nc(C(=O)O)c(=O)c2cc3c(cc21)OCO3	>= 4
O=C(O)P(=O)(O)O	>= 4
C[C@H]1O[C@H](O[C@H]2[C@H](O)[C@@H](O)[C@@H](O[C@H]3[C@H](O)[C@@H](O)C(O)O[C@@H]3CO)O[C@@H]2CO)[C@H](O)[C@@H](O)[C@@H]1N[C@H]1C=C(CO)[C@@H](O)[C@H](O)[C@H]1O (some centres undefined)	>= 4

---

test system: Hepatotoxicity; assay: FDA HLAED, alkaline phosphatase increase; details: human
reported metric: Alkaline Phosphatase Increase - Activity Score

Sample records with Alkaline Phosphatase Increase - Activity Score:
CCOC(=O)N1CCC(=C2c3ccc(Cl)cc3CCc3cccnc32)CC1 [LORATADINE]	Inactive
O=C(c1ccccc1)c1ccc2n1CCC2C(=O)O (centres undefined) [KETOROLAC]	Inactive
CO[C@H]1/C=C/O[C@@]2(C)Oc3c(C)c(O)c4c(O)c(c(/C=N/N5CCN(C)CC5)c(O)c4c3C2=O)NC(=O)/C(C)=C\C=C\[C@H](C)[C@H](O)[C@@H](C)[C@@H](O)[C@@H](C)[C@H](OC(C)=O)[C@@H]1C [RIFAMPIN]	Marginally Active
CC(C)C(=O)Nc1ccc([N+](=O)[O-])c(C(F)(F)F)c1 [FLUTAMIDE]	Active
O=C(O)Cc1ccccc1Nc1c(Cl)cccc1Cl [DICLOFENAC]	Active

get_value(item= Cn1c(=O)c2[nH]cnc2n(C)c1=O.O [THEOPHYLLINE] , readout=Alkaline Phosphatase Increase - Activity Score) returns Inactive

get_value(item= CC(C(=O)O)c1ccc(C(=O)c2cccs2)cc1 (centres undefined) [SUPROFEN] , readout=Alkaline Phosphatase Increase - Activity Score) returns Inactive

get_value(item= O=C1CN(/N=C/c2ccc([N+](=O)[O-])o2)C(=O)N1 [NITROFURANTOIN] , readout=Alkaline Phosphatase Increase - Activity Score) returns Active

get_value(item= CC(=O)OCC(=O)[C@@]12OC3(CCCC3)O[C@@H]1C[C@H]1[C@@H]3CCC4=CC(=O)C=C[C@]4(C)[C@@]3(F)[C@@H](O)C[C@@]12C [AMCINONIDE] , readout=Alkaline Phosphatase Increase - Activity Score) returns Inactive

get_value(item= CC(C)(C)NC(=O)[C@@H]1CN(Cc2cccnc2)CCN1C[C@@H](O)C[C@@H](Cc1ccccc1)C(=O)N[C@H]1c2ccccc2C[C@H]1O.O , readout=Alkaline Phosphatase Increase - Activity Score) returns Active

get_value(item= COc1ccc(CC2c3cc(OC)c(OC)cc3CC[N+]2(C)CCC(=O)OCCCCCOC(=O)CC[N+]2(C)CCc3cc(OC)c(OC)cc3C2Cc2ccc(OC)c(OC)c2)cc1OC (centres undefined) , readout=Alkaline Phosphatase Increase - Activity Score) returns Inactive

get_value(item= CCN(CC)CCNC(=O)c1ccc(N)cc1 [PROCAINAMIDE] , readout=Alkaline Phosphatase Increase - Activity Score) returns Inactive

get_value(item= Cn1nnnc1SCC1=C(C(=O)[O-])N2C(=O)[C@@H](NC(=O)[C@H](OC=O)c3ccccc3)[C@H]2SC1.[Na+] [CEFAMANDOLE NAFATE] , readout=Alkaline Phosphatase Increase - Activity Score) returns Inactive

get_value(item= CCOC(=O)c1ccc(C#Cc2ccc3c(c2)C(C)(C)CCS3)nc1 [TAZAROTENE] , readout=Alkaline Phosphatase Increase - Activity Score) returns Inactive

get_value(item= CCc1c2c(nc3ccc(OC(=O)N4CCC(N5CCCCC5)CC4)cc13)-c1cc3c(c(=O)n1C2)COC(=O)[C@]3(O)CC [IRINOTECAN] , readout=Alkaline Phosphatase Increase - Activity Score) returns Inactive

get_value(item= CC1=C(C(=O)O)N2C(=O)[C@@H](NC(=O)[C@H](N)c3ccc(O)cc3)[C@H]2SC1 [CEFADROXIL] , readout=Alkaline Phosphatase Increase - Activity Score) returns Inactive

get_value(item= CCC1=C(C)CN(C(=O)NCCc2ccc(S(=O)(=O)NC(=O)N[C@H]3CC[C@H](C)CC3)cc2)C1=O [GLIMEPIRIDE] , readout=Alkaline Phosphatase Increase - Activity Score) returns Inactive

get_value(item= COc1cc2nc(N3CCN(C(=O)C4CCCO4)CC3)nc(N)c2cc1OC (centres undefined) [TERAZOSIN] , readout=Alkaline Phosphatase Increase - Activity Score) returns Inactive

get_value(item= CC(C)c1c(C(=O)Nc2ccccc2)c(-c2ccccc2)c(-c2ccc(F)cc2)n1CC[C@@H](O)C[C@@H](O)CC(=O)O [ATORVASTATIN] , readout=Alkaline Phosphatase Increase - Activity Score) returns Inactive

---

system: Hepatotoxicity; experiment: FDA HLAED, liver enzyme composite activity; settings: human, Liver
Provide the reported Composite Activity - Marginal of each item.
The answer should be written as a number, with no unit following it.

get_value(item= NC(N)=Nc1nc(CSCCC(N)=NS(N)(=O)=O)cs1 , readout=Composite Activity - Marginal) returns 0

get_value(item= CC(C)c1cccc(C(C)C)c1O , readout=Composite Activity - Marginal) returns 0

get_value(item= Clc1ccc(CSC(Cn2ccnc2)c2ccc(Cl)cc2Cl)cc1 (centres undefined) , readout=Composite Activity - Marginal) returns 0

get_value(item= CC1(C)NC(=O)N(c2ccc([N+](=O)[O-])c(C(F)(F)F)c2)C1=O [NILUTAMIDE] , readout=Composite Activity - Marginal) returns 0

get_value(item= CO[C@H]1/C=C/O[C@@]2(C)Oc3c(C)c(O)c4c(c3C2=O)C2=NC3(CCN(CC(C)C)CC3)NC2=C(NC(=O)/C(C)=C\C=C\[C@H](C)[C@H](O)[C@@H](C)[C@@H](O)[C@@H](C)[C@H](OC(C)=O)[C@@H]1C)C4=O , readout=Composite Activity - Marginal) returns 0

get_value(item= CN(C)C(=N)N=C(N)N , readout=Composite Activity - Marginal) returns 0

get_value(item= Cn1cnc([N+](=O)[O-])c1Sc1ncnc2nc[nH]c12 , readout=Composite Activity - Marginal) returns 1

get_value(item= CCCc1cc(=O)[nH]c(=S)[nH]1 , readout=Composite Activity - Marginal) returns 0

get_value(item= O=C(O)c1cn(C2CC2)c2cc(N3CCNCC3)c(F)cc2c1=O , readout=Composite Activity - Marginal) returns 1

get_value(item= CC(C)(C(=O)O)c1ccc(C(O)CCCN2CCC(C(O)(c3ccccc3)c3ccccc3)CC2)cc1 (centres undefined) [FEXOFENADINE] , readout=Composite Activity - Marginal) returns 0

get_value(item= CC(C)(C)NC(=O)[C@@H]1C[C@@H]2CCCC[C@@H]2CN1C[C@@H](O)[C@H](Cc1ccccc1)NC(=O)[C@H](CC(N)=O)NC(=O)c1ccc2ccccc2n1 , readout=Composite Activity - Marginal) returns 0

get_value(item= O=C1NC(=O)C(c2ccccc2)(c2ccccc2)N1 , readout=Composite Activity - Marginal) returns 0

get_value(item= O=C(O)COCCN1CCN(C(c2ccccc2)c2ccc(Cl)cc2)CC1 (centres undefined) , readout=Composite Activity - Marginal) returns 0

get_value(item= NNCCc1ccccc1 , readout=Composite Activity - Marginal) returns 0

get_value(item= O=C(O)Cc1ccccc1Nc1c(Cl)cccc1Cl , readout=Composite Activity - Marginal) returns 1

get_value(item= CN1C(=O)CN=C(c2ccccc2)c2cc(Cl)ccc21 , readout=Composite Activity - Marginal) returns 0

get_value(item= O=C1CN(/N=C/c2ccc([N+](=O)[O-])o2)C(=O)N1 , readout=Composite Activity - Marginal) returns 0

get_value(item= Nc1ccc(S(=O)(=O)Nc2ncccn2)cc1 , readout=Composite Activity - Marginal) returns 0

get_value(item= OC(Cn1cncn1)(Cn1cncn1)c1ccc(F)cc1F , readout=Composite Activity - Marginal) returns 1

Cited source for all entries: ChEMBL document CHEMBL1697781
